Consider the following molecules; for each one, report its Fluorescence at max (%).
# Tested on: recombinant PsauGOBP2
# experiment.summary: Competitive fluorescence binding assay: displacement of 1-NPN from recombinant PsauGOBP2
# Parameters: species or system Peridroma saucia
# condition: remaining 1-NPN fluorescence at Max Conc 20 (20 µM, host plant volatiles); means ± SE, n = 3
Could you give the number and then its unit, please?

q: Which Fluorescence at max (%) value is on record for C=CC(=C)CCC=C(C)C ?
a: 45 ± 1.5%

q: Which Fluorescence at max (%) value is on record for CCC/C=C/C=O [(E)-2-Hexenal, (E)-2-hexenal] ?
a: 77 ± 3%

q: Which Fluorescence at max (%) value is on record for CC/C=C\C[C@H]1C(=O)CC[C@@H]1CC(=O)O ?
a: 73 ± 5%

q: Which Fluorescence at max (%) value is on record for O=Cc1ccccc1 ?
a: 74 ± 3%

q: Which Fluorescence at max (%) value is on record for C=C/C(C)=C/CC=C(C)C ?
a: 90 ± 4%

q: Which Fluorescence at max (%) value is on record for CCCCCCCCC=O ?
a: 85 ± 2%

Where do the numbers come from? From paper PMC10450149.
